Some molecules, each annotated with its measured IC50.
target: JAK3 (Homo sapiens); assay: Inhibition of a panel of kinases, in vitro HotSpot kinase assay: JAK3; type: biochemical; details: D-compounds panel data; 1 μM ATP; read-out: IC50 JAK3
Sequence (P52333 whole entry): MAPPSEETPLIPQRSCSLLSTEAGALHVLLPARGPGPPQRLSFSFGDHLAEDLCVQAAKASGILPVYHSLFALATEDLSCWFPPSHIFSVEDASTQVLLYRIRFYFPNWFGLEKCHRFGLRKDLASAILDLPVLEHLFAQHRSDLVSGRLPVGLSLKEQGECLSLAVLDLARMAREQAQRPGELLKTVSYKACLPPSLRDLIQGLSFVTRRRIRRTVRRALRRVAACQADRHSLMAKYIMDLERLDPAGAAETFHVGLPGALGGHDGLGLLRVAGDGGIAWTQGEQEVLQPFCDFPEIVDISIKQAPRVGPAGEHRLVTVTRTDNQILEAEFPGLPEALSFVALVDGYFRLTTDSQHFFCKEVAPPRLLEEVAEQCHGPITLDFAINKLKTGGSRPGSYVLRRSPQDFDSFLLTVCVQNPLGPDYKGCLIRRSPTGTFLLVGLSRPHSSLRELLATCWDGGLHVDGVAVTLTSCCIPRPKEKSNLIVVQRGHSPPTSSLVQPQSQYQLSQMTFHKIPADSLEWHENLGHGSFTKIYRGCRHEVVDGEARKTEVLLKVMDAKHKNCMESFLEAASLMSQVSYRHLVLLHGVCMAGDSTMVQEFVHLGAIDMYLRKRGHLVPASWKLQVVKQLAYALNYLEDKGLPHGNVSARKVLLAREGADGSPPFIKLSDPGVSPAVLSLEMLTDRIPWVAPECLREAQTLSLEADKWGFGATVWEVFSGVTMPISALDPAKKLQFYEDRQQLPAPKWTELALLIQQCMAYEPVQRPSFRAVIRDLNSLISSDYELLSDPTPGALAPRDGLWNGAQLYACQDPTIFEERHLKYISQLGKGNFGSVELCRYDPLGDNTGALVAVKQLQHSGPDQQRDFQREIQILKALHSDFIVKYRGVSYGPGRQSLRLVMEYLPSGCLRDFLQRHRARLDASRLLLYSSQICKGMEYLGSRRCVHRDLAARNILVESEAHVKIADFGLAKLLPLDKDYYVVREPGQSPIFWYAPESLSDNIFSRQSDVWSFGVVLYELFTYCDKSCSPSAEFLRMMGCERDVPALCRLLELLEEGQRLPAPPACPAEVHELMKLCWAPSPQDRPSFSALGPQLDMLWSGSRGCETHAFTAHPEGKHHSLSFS
READOUT_TYPE: IC50

[[record]]
molecule = "C[C@@H]1[C@H](NC(=O)c2ccc(C(F)(F)F)cc2)CCCN1c1cnc(C(N)=O)c(Nc2ccc(N3CCN(C)CC3)cc2)n1"
readout_type = "IC50"
result = "1 to 10 µM"

[[record]]
molecule = "C[C@@H]1[C@H](NC(=O)c2ccc(C3CC3)cc2F)CCCN1c1cnc(C(N)=O)c(Nc2ccc(CN3CCN(C)CC3)cc2)c1"
readout_type = "IC50"
result = "1 to 10 µM"

[[record]]
molecule = "Cn1cc(Nc2nc(N3CCC[C@H]4[C@@H]3CCN4C(=O)c3ccc(C4CC4)cc3)cnc2C(N)=O)cn1"
readout_type = "IC50"
result = "1 to 10 µM"

[[record]]
molecule = "C[C@@H]1[C@H](NC(=O)c2ccc3scnc3c2)CCCN1c1cnc(C(N)=O)c(Nc2cnn(C)c2)n1"
readout_type = "IC50"
result = "0.1 to 1 µM"

[[record]]
molecule = "C[C@@H]1[C@H](NC(=O)c2cc(C(C)(C)C)on2)CCCN1c1cnc(C(N)=O)c(Nc2cnn(C)c2)n1"
readout_type = "IC50"
result = "1 to 10 µM"

[[record]]
molecule = "C[C@@H]1[C@H](NC(=O)N(C)C)CCCN1c1cnc(C(N)=O)c(Nc2ccc(OC3CCN(C4CCCC4)CC3)cc2)n1"
readout_type = "IC50"
result = "0.1 to 1 µM"

[[record]]
molecule = "Cn1cc(Nc2nc(N3CCC[C@@H]4[C@H]3CCCN4C(=O)c3ccc(C4CC4)cc3)cnc2C(N)=O)cn1"
readout_type = "IC50"
result = "1 to 10 µM"

[[record]]
molecule = "C[C@@H]1[C@H](NC(=O)c2ccc(C3CC3)cc2)CCCN1c1cnc(C(N)=O)c(Nc2cnn(C)c2F)n1"
readout_type = "IC50"
result = "> 10 µM"

[[record]]
molecule = "C[C@@H]1[C@H](NC(=O)c2ccc(C(C)(C)C)cn2)CCCN1c1cnc(C(N)=O)c(Nc2cnn(C)c2)n1"
readout_type = "IC50"
result = "1 to 10 µM"

[[record]]
molecule = "CN(C)C(=O)N[C@H]1CCCN(c2cnc(C(N)=O)c(Nc3ccc(C4(C)CCN(C5CCCC5)CC4)cc3)n2)[C@H]1CO"
readout_type = "IC50"
result = "> 10 µM"

[[record]]
molecule = "C[C@@H]1[C@H](NC(=O)c2ccc(SC(F)(F)F)cc2)CCCN1c1cnc(C(N)=O)c(Nc2ccc(N3CCN(C)CC3)cc2)n1"
readout_type = "IC50"
result = "1 to 10 µM"

[[record]]
molecule = "C[C@H]1CC[C@@H](NC(=O)N(C)C)CN1c1cnc(C(N)=O)c(Nc2cnn(C)c2)n1"
readout_type = "IC50"
result = "1 to 10 µM"

[[record]]
molecule = "C[C@@H]1[C@H](NC(=O)c2ccc3nccn3c2)CCCN1c1cnc(C(N)=O)c(Nc2cnn(C)c2)n1"
readout_type = "IC50"
result = "1 to 10 µM"

[[record]]
molecule = "C[C@@H]1[C@H](NC(=O)N(C)C)CCCN1c1cnc(C(N)=O)c(Nc2cc(C3CCOCC3)ns2)n1"
readout_type = "IC50"
result = "1 to 10 µM"

[[record]]
molecule = "C[C@@H]1[C@H](NC(=O)c2ccc(C3CC3)nc2)CCCN1c1cnc(C(N)=O)c(Nc2ccc(OC3CCOCC3)cc2)n1"
readout_type = "IC50"
result = "0.1 to 1 µM"

[[record]]
molecule = "C[C@@H]1[C@H](NC(=O)N(C)C)CCCN1c1cnc(C(N)=O)c(Nc2ccc(N3CCN(C)CC3)cc2)n1"
readout_type = "IC50"
result = "0.1 to 1 µM"

[[record]]
molecule = "C[C@@H]1[C@H](NC(=O)c2ccc(C3CC3)cc2)CCCN1c1cnc(C(N)=O)c(Nc2ccc(OC3CCN(CC(F)(F)F)CC3)cc2)n1"
readout_type = "IC50"
result = "1 to 10 µM"

[[record]]
molecule = "C[C@H]1CC[C@@H](NC(=O)c2ccc(C3CC3)cc2)CN1c1cnc(C(N)=O)c(Nc2ccc(N3CCN(C)CC3)cc2)n1"
readout_type = "IC50"
result = "0.1 to 1 µM"

[[record]]
molecule = "Cc1cccc(-c2cnc(C3CCCN(c4cnc(C(N)=O)c(Nc5cnn(C)c5)n4)C3)[nH]2)c1 (stereo not drawn)"
readout_type = "IC50"
result = "1 to 10 µM"

[[record]]
molecule = "C[C@@H]1[C@H](NC(=O)c2ccc3c(c2)OCCO3)CCCN1c1cnc(C(N)=O)c(Nc2cnn(C)c2)n1"
readout_type = "IC50"
result = "1 to 10 µM"

[[record]]
molecule = "C[C@@H]1[C@H](NC(=O)c2ccc(C3CC3)cc2)CCCN1c1cnc(C(N)=O)c(Nc2cnn(CCN(C)C)c2)n1"
readout_type = "IC50"
result = "1 to 10 µM"

[[record]]
molecule = "C[C@@H]1[C@H](NC(=O)c2ccc(C3CC3)cn2)CCCN1c1cnc(C(N)=O)c(Nc2ccc(N3CCN(C)CC3)cc2)n1"
readout_type = "IC50"
result = "1 to 10 µM"

[[record]]
molecule = "C[C@@H]1[C@H](NC(=O)c2cc(C3CC3)n[nH]2)CCCN1c1cnc(C(N)=O)c(Nc2cnn(C)c2)n1"
readout_type = "IC50"
result = "0.1 to 1 µM"

[[record]]
molecule = "C[C@@H]1[C@H](NC(=O)N(C)C)CCCN1c1cnc(C(N)=O)c(Nc2cc(CN3CCOCC3)ns2)n1"
readout_type = "IC50"
result = "1 to 10 µM"

[[record]]
molecule = "C[C@@H]1[C@H](NC(=O)c2ccc(C(C)(C)O)cc2F)CCCN1c1cnc(C(N)=O)c(Nc2cnn(C)c2)n1"
readout_type = "IC50"
result = "0.1 to 1 µM"

[[record]]
molecule = "Cc1cc(Nc2nc(N3C[C@@H](NC(=O)N(C)C)CC[C@@H]3C)cnc2C(N)=O)sn1"
readout_type = "IC50"
result = "1 to 10 µM"

[[record]]
molecule = "C[C@@H]1[C@H](NC(=O)c2ccc(C3CC3)cc2)CCCN1c1cnc(C(N)=O)c(Nc2ccc(N3CCN(CC(F)(F)F)CC3)cc2)n1"
readout_type = "IC50"
result = "1 to 10 µM"

